# credit: PubChem BioAssay (NCI)

Tested on: OVCAR-3 ovarian
protocol_notes: NCI tumour cell line growth inhibition, 48 h
Label True for high-side TGI (at or above 40 µM) and False for low-side TGI (below it).

Please check the record COc1cc(N(C)C)c(OC)cc1C=C1C=CC=C1 and state if its TGI is at or above 40 µM. True

Is the recorded value of TGI equal to or greater than 40 µM for this molecule? CCOc1ccc2cc(-c3nn(CC4CCNCC4)c4ncnc(N)c34)ccc2c1 True

API: above_or_equal(metric=TGI, cutoff=40 µM) for item COc1ccc(/C=N/NS(=O)(=O)c2ccccc2)cc1 True

Does the reported TGI for N#C/C(=C(/O)CCl)c1nc2ccccc2o1 fall at or above the 40 µM mark? False

Item CC[C@H]1OC(=O)[C@H](C)[C@@H](O[C@H]2C[C@@](C)(OC)[C@@H](O)[C@H](C)O2)[C@H](C)[C@@H](O[C@@H]2O[C@H](C)C[C@H](N(C)C)[C@H]2O)[C@](C)(OC)C/C(C)=C2/O[C@@]1(C)C=C2C with TGI of 40 µM or above? False

Determine whether this molecule has TGI no lower than 40 µM: O=CN1N=C(c2cccc(Nc3ccnc4cc(Cl)ccc34)c2)CC1c1ccc(Cl)cc1 (stereo not given) False

Does the reported TGI for O=C(Nc1ccccc1)OCCN=C1c2ccccc2CCc2ccccc21 fall at or above the 40 µM mark? True

Hi, just wondering whether COc1cc2c3c(n(CCCNCCCNCCCN)c(=O)c2cc1OC)-c1cc2c(cc1C3=O)OCO2 shows TGI of 40 µM or higher. True

I'd appreciate it if you could say whether CC1=NN(c2nc(N)nc(/C(C#N)=C\c3ccc(-c4ccc([N+](=O)[O-])cc4)o3)n2)C(C)(C)C1 has TGI at least equal to 40 µM. True

Is TGI for O=C(Nc1ccccc1)Oc1ccc(C(=S)Nc2ccc(Br)cc2)cc1 at or above 40 µM? True

# check: TGI of O=C(/C=C/c1ccccc1O)c1ccccc1Cl is greater than or equal to 40 µM True

Quick check: does COc1ccc(-c2c(N)noc2-c2cc(OC)c3c(c2)OCCO3)cc1 have TGI greater than or equal to 40 µM? False

Answer whether TGI of CC(C)(C)O/N=C/c1cc(NC(=S)c2ccsc2)ccc1Cl is greater than or equal to 40 µM. False

Reported TGI at or above 40 µM? O=NNc1ccc(S(=O)(=O)c2ccc3ccccc3c2)cn1 True

I'd appreciate it if you could say whether C=C1C[C@@H]2O[C@H]3[C@H]4[C@@H](CC[C@@](C)(OC(=O)CCC)[C@H]42)[C@@H](C)C(=O)O[C@@]3(C)CC[C@H]1OO has TGI at least equal to 40 µM. False

Does the reported TGI for COc1ccc(Br)c(C(=O)N2CCc3ccccc32)c1N fall at or above the 40 µM mark? True

Could you please find out whether Clc1ccc(CN2CCCN(Cc3ccc(Cl)cc3)C2c2cc3ccccc3c3ccccc23)cc1 has TGI that meets 40 µM or exceeds it? True

Item O=C1Oc2ccccc2C(=O)/C1=C/N1C(=O)CNC1=S with TGI of 40 µM or above? True

---

Test system: HOP-92 NSCLC
protocol_notes: NCI tumour cell line growth inhibition, 48 h
readout_label: TGI

Quick note, TGI for CC(=O)Nc1cccc(N2C(=O)/C(=C\c3cccc(Oc4ccccc4)c3)SC2c2ccccc2)c1 (stereo unspecified) landed at > 100 µM

// sample CC1(C)C2CCC13C(=O)C1OC3(C2)C2C(=O)c3c(ccc4c3ccc3ccccc34)C(=O)C12 (stereo unspecified) , its TGI was > 100 µM

Sure, the documented TGI for O=[N+]([O-])c1cccc2nccc(NCCN3CCOCC3)c12 is > 100 µM

The molecule listed as O=c1[nH]cnc2n[nH]nc12 has a reported TGI of > 100 µM

// Cc1cc(O)c(/C=N/C(=S)Nc2ccc(S(N)(=O)=O)cc2)c(=O)o1 : TGI value = > 100 µM

Data point: C=C1C2=C(CCCC2)C(=O)OC12CCCCC2 ; TGI = 77.9 µM

// field: TGI; key: COc1cc(OC)c2c(=O)c3cccc(C)c3n(C)c2c1 ; value = > 100 µM

So, CN=c1sc2nc(C#N)c(C#N)nc2n1C ? Its TGI was 37.7 µM

Sample CC1(C)N=C(N)N=C(N)N1c1cccc(CCc2ccccc2)c1 ; TGI observed: 34.4 µM

// TGI value for C=C1CC[C@H]2C(C)=CC[C@H]3C(=C)C(=O)O[C@@H]3[C@@H]12 : > 100 µM

For this molecule ( COc1ccc2c(c1)C(=O)c1c-2c(OCCN(C)C)nc2cc(OC)c(OC)cc12 ), measured TGI is 19.6 µM

---

System: MDA-N
protocol_notes: NCI tumour cell line growth inhibition, 48 h
Answer each item with its documented TGI.

TGI for C[C@@H]1CC[C@H]2[C@H](C)C(OC3O[C@@H]4O[C@@]5(C)CC[C@H]6[C@H](C)CC[C@@H]([C@@H]3C)[C@@]46O5)O[C@@H]3O[C@@]4(C)CC[C@@H]1[C@]32O4 (stereo partly drawn) is > 100 µM

The compound listed as COc1cc(OC)c2c(=O)c3cccc(C)c3n(C)c2c1 shows TGI equal to > 100 µM

The reported TGI of the compound COc1cccc(C23CCN(C)C(CC(O)C2)C3)c1OC (stereo not drawn) was > 100 µM

Measured TGI, O=[N+]([O-])c1ccc(N=Nc2c(O)[nH]c3ccccc23)c([N+](=O)[O-])c1 : > 100 µM

Measured TGI of COc1cc([C@@H]2c3cc4c(cc3[C@@H](Nc3ccc(Cl)cc3C(=O)c3ccccc3)[C@H]3COC(=O)[C@H]23)OCO4)cc(OC)c1OC : > 93.6 µM

Sample O=c1[nH][nH]c(=O)c2c1ccc1oc3ccccc3c12 ; TGI observed: > 100 µM

# TGI (compound: O=c1c(Sc2c(SCSc3cnc4ccccc4c3Sc3c[nH]c4ccccc4c3=O)cnc3ccccc23)c[nH]c2ccccc12 ) is > 100 µM

Lab note: measured TGI of Cc1nn(C(=O)c2ccncc2)c2c1C(c1ccccc1[N+](=O)[O-])SC(N)=N2 (stereo not drawn) was > 10 µM

The reported value for CC1OC(OC2C(O)C(O)C(O)C(O)C2O)C(N)CC1N=C(N)C(=O)O (stereo not drawn) in terms of TGI is > 100 µM

The reported value for Cc1ccc(OC(=O)N2C/C(=C\c3ccccc3)C(=O)/C(=C/c3ccccc3)C2)cc1 in terms of TGI is 15.3 µM

Notebook: C=C1CC[C@H]2C(C)=CC[C@H]3C(=C)C(=O)O[C@@H]3[C@@H]12 , TGI read as > 100 µM

For record CC(C)(C)O/N=C/c1cc(NC(=S)c2ccsc2)ccc1Cl the listed TGI is 29.8 µM

get_value(item= NCCCN=c1ccc2c3c1c(O)c1c(O)ccc(=O)c1c3[nH]n2CCNCCO , readout=TGI) returns 8.37 µM

The measured TGI associated with COc1ccccc1NC(=O)C1=C(C)NC(C)=C(C(=O)Nc2ccccc2OC)C1c1ccco1 reads > 100 µM

Form field TGI, entry CN=c1sc2nc(C#N)c(C#N)nc2n1C : > 58.3 µM

The compound CC(=O)/C(=C\I)c1ccccc1 showed TGI equal to 3.28 µM

Quick note, TGI for CCCCCC[C@H]1C(=O)O[C@H](C)[C@H](NC(=O)c2cccc(NC=O)c2OC)C(=O)O[C@@H](C)[C@@H]1OC(=O)CCC (tested in a mixture with another compound) landed at 45.2 µM

So for COc1ccc(C2C3CCc4ccccc4C3=NN2S(=O)(=O)c2cccc(C(=O)O)c2OC)cc1 (stereo not drawn) , the logged TGI turned out to be 7.25 µM

---

Test system: SK-OV-3 ovarian
protocol_notes: NCI tumour cell line growth inhibition, 48 h
readout_label: TGI

For record O=[N+]([O-])/C=C/c1ccc(Cl)cc1[N+](=O)[O-] the listed TGI is 24.5 µM

Per the record, CC(Oc1ccc(Cl)cc1Cl)C(=O)NN1C(=O)CC(=O)N(c2ccccc2)C1=S (configuration not stated) has TGI of > 100 µM

For record O=C(/C=C/c1ccccc1O)c1ccccc1Cl the listed TGI is > 100 µM

The reported value for CCOC(=O)[C@@H]1CSC(CC)=C(C(=O)O)N1 in terms of TGI is > 100 µM

response.value for CN(N=O)c1nc2c(C(N)=O)ncn2s1 (field: TGI) = > 100 µM

// field: TGI; key: COC(=O)c1c(O)ccc2c1c1c(n2Cc2cc(OC)cc(OC)c2)C(=O)c2ccccc2C1=O ; value = 37.5 µM

The reported value for C=CC(=O)Nc1cc2c(Nc3ccc(F)c(Cl)c3)ncnc2cc1C#CC(C)(C)N1CCN(C)CC1 in terms of TGI is 4.59 µM

Lab note: measured TGI of O=C(Cn1c2ccc(Br)cc2c2nc3ccccc3nc21)Nc1ccccc1 was > 100 µM

Quick note, TGI for CCN(c1ccccc1)[C@H]1C(=O)N(c2ccc([N+](=O)[O-])cc2)[C@H]1c1ccc(OC)cc1 landed at > 100 µM

GET /value?item= COc1ccc(-c2nc(Nc3ccccc3)sc2Cc2sc(Nc3ccccc3)nc2-c2ccc(OC)cc2)cc1 &field=TGI returns > 100 µM

Lookup result for O=c1cccc(Cl)[nH]1 ; measured TGI: > 100 µM

Entry under test: COc1cc(-c2nn(-c3cccc(NC(=O)CCNc4ccc(N5CCOCC5)cc4)c3)cc2-c2ccncc2)ccc1Cl . Its TGI was > 100 µM

Lab note: COc1ccc(C2C3CCc4ccccc4C3=NN2S(=O)(=O)c2cccc(C(=O)O)c2OC)cc1 (configuration not stated) gave TGI of 17.7 µM

Noted for CC1(C)N=C(N)N=C(N)N1c1cccc(CCc2ccccc2)c1 : its TGI reads > 100 µM

# compound CC1OC(OC2C(O)C(O)C(O)C(O)C2O)C(N)CC1N=C(N)C(=O)O (configuration not stated) ; its TGI = > 100 µM

Input CC(C)CC(N)C(=O)NC(C(=O)NC(CCCNC(=N)N)C(=O)NC(CS)C(=O)NC1CSCC(C(=O)NC(Cc2ccccc2)C(=O)NC(C(=O)NC(CCCNC(=N)N)C(=O)O)C(C)C)NC(=O)C2CCCN2C(=O)C(CCCCN)NC(=O)C2CCCN2C(=O)C2CCCN2C(=O)C(Cc2ccc(O)cc2)NC(=O)C(CO)NC(=O)C(CCCCN)NC(=O)C(C(C)O)NC(=O)C(Cc2c[nH]c3ccccc23)NC1=O)C(C)C (configuration not stated) . Output TGI: > 25 µM

Short answer for O=C(O)c1cc2ccccc2c(N=Nc2ccc(S(=O)(=O)Nc3ncccn3)cc2)c1O : TGI was > 100 µM

Lab book: TGI of O=[N+]([O-])c1ccc(N=Nc2c(O)[nH]c3ccccc23)c([N+](=O)[O-])c1 noted as 32.4 µM

Record O=[N+]([O-])c1ccc(-c2nn3c(C45CC6CC(CC(C6)C4)C5)nnc3s2)c(Cl)c1 , field TGI: > 100 µM

Quick note, TGI for CC(=O)[C@H]1[C@H](O)C[C@@]2(C)[C@@H]3CCc4cc(O)c(OC5OC(CO)C(O)C(O)C5O)cc4C3(C)C(=O)C[C@]12C (some centres not stated) landed at > 100 µM

# TGI (compound: O=C(NCCN1CCCCC1)c1cccc(I)c1 ) is > 100 µM

CC(Cn1c2c(c3cc(O)ccc31)CCc1ccc(O)cc1-2)N(C)C (configuration not stated) yielded TGI of 77 µM
